Measured values drawn from patent EP0369035A1 for this set.

Target: bovine factor Xa (Bos taurus, UniProt P00743)
Construct: 0.05 ml of 0.3 vial/ml bovine factor Xa
Sequence (P00743 234-492 limits assumed): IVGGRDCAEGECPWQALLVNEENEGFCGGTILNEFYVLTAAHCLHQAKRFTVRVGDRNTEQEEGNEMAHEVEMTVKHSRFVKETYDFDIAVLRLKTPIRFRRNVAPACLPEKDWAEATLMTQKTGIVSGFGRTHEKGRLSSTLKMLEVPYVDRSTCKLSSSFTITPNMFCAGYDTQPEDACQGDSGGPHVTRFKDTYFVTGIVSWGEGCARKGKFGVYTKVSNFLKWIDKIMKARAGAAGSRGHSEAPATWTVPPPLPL
Sequence (P00743 41-180 partner limits assumed): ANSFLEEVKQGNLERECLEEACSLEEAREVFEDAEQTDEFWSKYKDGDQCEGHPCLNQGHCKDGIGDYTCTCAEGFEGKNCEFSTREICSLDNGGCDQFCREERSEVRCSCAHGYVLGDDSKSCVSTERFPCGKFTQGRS
Assay details: Anti-FXa activity: inhibition of S-2222 degradation
Assay type: biochemical
Experimental context: substrate S-2222, 37°C, pH 8.3; read-out: FXa S-2222 (I50)
Give IC50 for every item shown.

Answer with reported IC50 of NCC1CCC(C(=O)NC(Cc2ccccc2)C(=O)Nc2ccc(C(=O)O)cc2)CC1 (stereo not drawn) [Compound 22]
> 400 µM

Answer with reported IC50 of CC(=O)c1ccc(NC(=O)[C@H](Cc2cccc(Oc3ccccc3)c2)NC(=O)[C@H]2CC[C@H](CN)CC2)cc1 [Compound 7]
> 200 µM

Answer with reported IC50 of NC[C@H]1CC[C@H](C(=O)NC(Cc2cccc(Oc3ccccc3)c2)C(=O)Nc2ccncc2)CC1 (mixture of isomers) [Compound 13]
> 200 µM

---

Target: human urokinase (Homo sapiens)
Assay details: Anti-urokinase activity: inhibition of S-2444 degradation
Assay type: biochemical
Experimental context: substrate S-2444, 37°C, pH 8.8; read-out: Urokinase S-2444 (I50)
Give IC50 for every item shown.

Answer with reported IC50 of NCC1CCC(C(=O)NC(Cc2ccc(OCc3ccccc3)cc2)C(=O)Nc2ccncc2)CC1 (stereo not shown)
> 1000 µM

Answer with reported IC50 of "NC[C@H]1CC[C@H](C(=O)N[C@@H](Cc2ccc(OCc3ccccc3)cc2)C(=O)Nc2ccncn2)CC1"
110 µM

Answer with reported IC50 of "NC[C@H]1CC[C@H](C(=O)N[C@@H](Cc2ccc(OCc3ccccc3)cc2)C(=O)Nc2ccc(CCC(=O)O)cc2)CC1"
210 µM

Answer with reported IC50 of CCOC(=O)c1ccc(OC(=O)CCCCCNC(=N)N)cc1 [FOY, gabexate mesilate, reference compound]
1.3 µM

Answer with reported IC50 of CC(=O)c1ccc(NC(=O)[C@@H](Cc2ccc(OCc3ccccn3)cc2)NC(=O)C2CCC(CN)CC2)cc1 (stereo partly shown)
> 1000 µM

Answer with reported IC50 of N=C(N)c1ccc2cc(OC(=O)c3ccc(N=C(N)N)cc3)ccc2c1 [FUT-175, nafamostat mesilate, reference compound]
0.01 µM

Answer with reported IC50 of "CC(=O)c1ccc(NC(=O)[C@H](Cc2ccccc2)NC(=O)[C@H]2CC[C@H](CN)CC2)cc1"
58 µM

Answer with reported IC50 of NC[C@H]1CC[C@H](C(=O)NC(Cc2cccc(Oc3ccccc3)c2)C(=O)Nc2cccnc2)CC1 (mixture of isomers)
250 µM

Answer with reported IC50 of NCC1CCC(C(=O)N[C@H](Cc2ccc([N+](=O)[O-])cc2)C(=O)Nc2ccc(C(=O)c3ccccc3)cc2)CC1 (stereo partly shown)
170 µM

Answer with reported IC50 of NCC1CCC(C(=O)NC(Cc2ccccc2)C(=O)Nc2ccc(C(=O)O)cc2)CC1 (stereo not shown)
> 1000 µM

Answer with reported IC50 of "NC[C@H]1CC[C@H](C(=O)N[C@@H](Cc2ccc([N+](=O)[O-])cc2)C(=O)Nc2ccc(C(=O)c3ccccc3)cc2)CC1"
5 µM

Answer with reported IC50 of "CC(=O)c1ccc(NC(=O)[C@H](Cc2ccc(OCc3cccc(Cl)c3)cc2)NC(=O)[C@H]2CC[C@H](CN)CC2)cc1"
40 µM

Answer with reported IC50 of "NC[C@H]1CC[C@H](C(=O)N[C@@H](Cc2ccc(OCc3ccccc3)cc2)C(=O)Nc2cccnc2)CC1"
45 µM

Answer with reported IC50 of NC[C@H]1CC[C@H](C(=O)NC(Cc2cccc(Oc3ccccc3)c2)C(=O)Nc2ccnc(Cl)c2)CC1 (mixture of isomers)
190 µM

Answer with reported IC50 of "NC[C@H]1CC[C@H](C(=O)N[C@@H](Cc2ccc(OCc3ccccc3)cc2)C(=O)Nc2ccncc2)CC1"
32 µM

Answer with reported IC50 of "NC[C@H]1CC[C@H](C(=O)N[C@@H](Cc2ccc(OCc3ccccc3)cc2)C(=O)Nc2ccc(CC(=O)O)cc2)CC1"
260 µM
